target: human FAAH (Homo sapiens, UniProt O00519); construct: expressed in transfected cells; host or cells: H4 cells (H4-FAAH, Geneticin-selected); crude membrane homogenates; assay: FAAH activity in membrane homogenates of H4-FAAH cells, [3H]-anandamide hydrolysis; type: biochemical; settings: H4-FAAH cell membranes, 10 μM anandamide, room temperature, one hour; read-out: IC50
Sequence (O00519 whole entry): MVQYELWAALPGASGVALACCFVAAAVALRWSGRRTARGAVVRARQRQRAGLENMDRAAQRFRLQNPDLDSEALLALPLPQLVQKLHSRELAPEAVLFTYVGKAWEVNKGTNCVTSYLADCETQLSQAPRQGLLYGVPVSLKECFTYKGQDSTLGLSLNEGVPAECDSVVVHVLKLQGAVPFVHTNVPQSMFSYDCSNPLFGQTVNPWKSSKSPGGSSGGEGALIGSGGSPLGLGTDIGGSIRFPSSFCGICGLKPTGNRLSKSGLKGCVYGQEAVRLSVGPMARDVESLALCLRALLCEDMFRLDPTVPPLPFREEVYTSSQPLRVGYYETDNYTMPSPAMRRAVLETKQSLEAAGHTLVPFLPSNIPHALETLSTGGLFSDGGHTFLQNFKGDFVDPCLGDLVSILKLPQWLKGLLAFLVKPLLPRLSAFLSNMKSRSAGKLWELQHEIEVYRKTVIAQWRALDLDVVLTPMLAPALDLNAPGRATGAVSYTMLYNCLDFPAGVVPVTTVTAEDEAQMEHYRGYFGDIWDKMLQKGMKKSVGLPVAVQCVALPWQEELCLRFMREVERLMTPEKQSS
# IC50 values compiled below

- compound: "O=C(Nc1ccc(Oc2ccncc2)cc1)O/N=C/c1ccc(F)cc1 [Example 146]"
  IC50: "101 to 500 nM"
- compound: "CCCCOc1ccc(CNC(=O)O/N=C/c2ccccc2)cc1 [Example 62]"
  IC50: "10 to 100 nM"
- compound: "CCCCOc1ccc(NC(=O)O/N=C/c2ccc([N+](=O)[O-])cc2)cc1 [Example 59]"
  IC50: "< 10 nM"
- compound: "O=C(Nc1ccc(-c2ccccc2)cc1)O/N=C/c1cccnc1 [Example 69]"
  IC50: "10 to 100 nM"
- compound: "CCc1ccc(-c2ccc(NC(=O)O/N=C/c3ccc(F)cc3)cc2)cc1 [Example 75]"
  IC50: "< 10 nM"
- compound: "O=C(Nc1ccc(OCc2ccccc2)cc1)O/N=C/c1cccnc1 [Example 78]"
  IC50: "< 10 nM"
- compound: "CCCCOc1ccc(C(CC)NC(=O)Oc2ccc(OC)cc2)cc1 (stereo not shown) [Example 126]"
  IC50: "10 to 100 nM"
- compound: "CCCCCCCCCOc1ccc(NC(=O)O/N=C/c2cc(F)c(F)cc2F)cc1 [Example 56]"
  IC50: "< 10 nM"
- compound: "CCCCCCCCOc1ccc(NC(=O)Oc2ccccc2F)cc1 [Example 99]"
  IC50: "10 to 100 nM"
- compound: "CCCCOc1ccc(NC(=O)Oc2ccc(Cl)cc2)cc1 [Example 100]"
  IC50: "10 to 100 nM"
- compound: "CCCCOc1ccc(CNC(=O)Oc2ccc(F)cc2)cc1 [Example 121]"
  IC50: "< 10 nM"
- compound: "CCCCCCCCCOc1ccc(NC(=O)O/N=C/c2ccc(F)cc2F)cc1 [Example 51]"
  IC50: "< 10 nM"
- compound: "CCCCOc1ccc(NC(=O)O/N=C/c2cccnc2)cc1 [Example 44]"
  IC50: "10 to 100 nM"
- compound: "CCCCOc1ccc(NC(=O)Oc2ccccc2F)cc1 [Example 107]"
  IC50: "101 to 500 nM"
- compound: "CCCCCCCCCCCCOc1ccc(NC(=O)O/N=C/c2ccc(F)cc2)cc1 [Example 42]"
  IC50: "< 10 nM"
- compound: "CCCCOc1ccc(C(CC)NC(=O)Oc2ccccc2)cc1 (stereo not shown) [Example 134]"
  IC50: "10 to 100 nM"
